Recorded pKi for the following compounds
- target entity: Retinoic acid receptor RXR-alpha/oxysterols receptor LXR-beta (Homo sapiens)
- Sequence (P19793 whole entry): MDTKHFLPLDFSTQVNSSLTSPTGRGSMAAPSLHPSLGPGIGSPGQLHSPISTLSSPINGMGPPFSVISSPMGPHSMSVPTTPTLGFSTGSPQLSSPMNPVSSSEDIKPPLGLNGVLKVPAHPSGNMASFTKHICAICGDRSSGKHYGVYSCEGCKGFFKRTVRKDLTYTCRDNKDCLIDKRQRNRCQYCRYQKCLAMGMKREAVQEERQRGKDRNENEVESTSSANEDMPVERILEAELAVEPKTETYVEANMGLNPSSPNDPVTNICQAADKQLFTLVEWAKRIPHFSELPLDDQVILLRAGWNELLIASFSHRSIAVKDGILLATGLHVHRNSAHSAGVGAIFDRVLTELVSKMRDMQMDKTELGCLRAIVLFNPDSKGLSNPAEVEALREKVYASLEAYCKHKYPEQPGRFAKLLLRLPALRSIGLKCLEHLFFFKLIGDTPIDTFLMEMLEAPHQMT
- Sequence (P55055 whole entry): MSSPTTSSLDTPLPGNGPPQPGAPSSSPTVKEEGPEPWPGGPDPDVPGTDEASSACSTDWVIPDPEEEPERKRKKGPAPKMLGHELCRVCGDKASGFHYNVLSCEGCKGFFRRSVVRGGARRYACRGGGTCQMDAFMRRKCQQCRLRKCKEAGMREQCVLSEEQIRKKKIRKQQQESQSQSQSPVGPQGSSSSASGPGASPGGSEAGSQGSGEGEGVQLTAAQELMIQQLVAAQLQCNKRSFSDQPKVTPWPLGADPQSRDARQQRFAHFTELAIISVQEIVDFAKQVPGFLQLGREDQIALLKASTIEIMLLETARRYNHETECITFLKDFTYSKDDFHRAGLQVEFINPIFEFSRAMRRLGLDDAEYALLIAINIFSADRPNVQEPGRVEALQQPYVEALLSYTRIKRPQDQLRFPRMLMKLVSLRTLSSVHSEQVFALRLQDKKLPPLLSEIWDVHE
- measurement protocol: Binding affinity to LXRbeta-RXRalpha heterodimer (unknown origin) expressed in insect cells by scintillation proximity assay
Schema: pKi number; meaning minus log10 of the concentration expressed in molar units.

The cases that follow already have their pKi on record.
entry_smiles=CS(=O)(=O)c1cccc(-c2cccc(-c3cc(C(F)(F)F)nn3-c3ccccc3Cl)c2)c1 experimental_value=7.51
entry_smiles=CC(C)(O)c1cc(-c2ccc(-c3cccc(S(C)(=O)=O)c3)s2)n(-c2ccccc2Cl)n1 experimental_value=7.08
entry_smiles=Cc1cc(CC(=O)O)ccc1-c1ccc(-c2cc(C(F)(F)F)c(C#N)c(=O)n2Cc2ccc(F)cc2F)s1 experimental_value=8.05
entry_smiles=CS(=O)(=O)c1cccc(-c2ccc(-c3cc(C(F)(F)F)nn3-c3ccccc3C(F)(F)F)s2)c1 experimental_value=7.80
entry_smiles=CC(C)(O)c1cn(-c2ccc(-c3cccc(S(C)(=O)=O)c3)cc2)c(-c2ccccc2Cl)n1 experimental_value=7.23

Lab entry: Retinoic acid receptor RXR-alpha/oxysterols receptor LXR-beta (Homo sapiens) assay, compound "N#Cc1c(C(F)(F)F)cc(-c2ccc(Oc3ccccc3)cc2)n(Cc2ccc(F)cc2F)c1=O" , pKi = 8.05

Lab entry: Retinoic acid receptor RXR-alpha/oxysterols receptor LXR-beta (Homo sapiens) assay, compound "COC(=O)c1cc(-c2ccc(-c3cccc(S(C)(=O)=O)c3)s2)n(-c2ccccc2Cl)n1" , pKi = 8.00

Lab entry: Retinoic acid receptor RXR-alpha/oxysterols receptor LXR-beta (Homo sapiens) assay, compound "CC(C)(O)c1cn(-c2ccc(-c3cccc(S(C)(=O)=O)c3)cc2)c(-c2c(Cl)cccc2Cl)n1" , pKi = 7.27
